Target under test: LecA (Pseudomonas aeruginosa, UniProt Q05097)
Construct: purchased Sigma–Aldrich (Steinheim, Germany)
Sequence (Q05097 2-122): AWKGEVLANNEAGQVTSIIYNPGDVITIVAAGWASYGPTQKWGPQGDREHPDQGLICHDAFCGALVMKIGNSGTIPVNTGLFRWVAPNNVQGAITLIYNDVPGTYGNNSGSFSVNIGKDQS
Assay procedure: Affinity capillary electrophoresis (ACE), direct binding, μeff shift of LecA with carbohydrate in BGE
Observable: Kd (µM)
Record the value in µM, omitting the unit from your answer.

Record summary for O=C(O)CO[C@@H]1O[C@H](CO)[C@H](O)[C@H](O)[C@H]1O [Compound 1] : reported Kd = 27
